These data points were gathered from patent US20170334899A1.

test system: DU145; assay: Proliferation assay (crystal violet), DU145; format: cell-based; settings: Homo sapiens, DU-145, 96 h; DU145 cells; 4 days incubation; crystal violet staining; read-out: IC50 inhibition of proliferation, DU145
REPORTED_ENDPOINT: pIC50
Answers are plain numbers, as −log10 of the molar value.

1) Cc1nsc(Nc2cnc(C(F)(F)F)cn2)c1C(=O)Nc1ccc(OC2CCN(CC(F)(F)F)CC2)nc1 [Example 9]
6.52
2) Cc1nsc(Nc2cnc(C(F)(F)F)cn2)c1C(=O)Nc1ccc(OC2CCN(C(=O)OC(C)(C)C)CC2)nc1 [Example 5]
6.28
3) Cc1nsc(Nc2cnc3ccccc3n2)c1C(=O)Nc1ccc(Oc2cccc(C(F)(F)F)c2)nc1 [Example 117]
6.51
4) Cc1nsc(Nc2cnc(C(F)(F)F)cn2)c1C(=O)Nc1ccc(OC2CCN(CCF)CC2)nc1 [Example 7]
5.85

Could you report pIC50 for every entry in the following list?
1. Cc1nsc(Nc2cnc(C(F)(F)F)cn2)c1C(=O)Nc1ccc(OC2CCN(CC(F)F)CC2)nc1 [Example 8]
2. Cc1nsc(Nc2cncc(C(F)(F)F)n2)c1C(=O)Nc1ccc(OC2CCN(CC(F)(F)F)CC2)nc1 [Example 16]
3. COCCOc1ccc(NC(=O)c2c(C)nsc2Nc2nc3c(C(F)(F)F)cccc3s2)cc1F [Example 1]
4. Cc1nsc(Nc2cncc(C(F)(F)F)n2)c1C(=O)Nc1ccc(OC2CCN(C(=O)OC(C)(C)C)CC2)nc1 [Example 12]
5. Cc1nsc(Nc2ccc(C#N)cn2)c1C(=O)Nc1ccc(C(=O)OC(C)(C)C)cc1 [Example 98]
6. Cc1nsc(Nc2cnc3ccccc3n2)c1C(=O)Nc1ccc(OC2CCCN(C(=O)OC(C)(C)C)C2)nc1 (stereo not drawn) [Example 31]
7. Cc1nsc(Nc2cnc(C(F)(F)F)cn2)c1C(=O)Nc1ccc(C(=O)OC(C)(C)C)cc1 [Example 96]
8. Cc1nsc(Nc2cnc(C(F)(F)F)cn2)c1C(=O)Nc1ccc(OCC2CCN(C(=O)OC(C)(C)C)C2)nc1 (stereo not drawn) [Example 109]

# output
[6.60, 6.14, 6.36, 5.96, 6.34, 5.52, 6.10, 6.18]

Could you report pIC50 for every entry in the following list?
1. Cc1nsc(Nc2ccc(C#N)cn2)c1C(=O)Nc1ccc(OC2CCN(CC(F)(F)F)CC2)nc1 [Example 30]
2. Cc1nsc(Nc2ccc(C#N)cn2)c1C(=O)Nc1ccc(OC2CCN(C(=O)OC(C)(C)C)CC2)nc1 [Example 27]
3. Cc1nsc(Nc2ccc(C#N)cn2)c1C(=O)Nc1ccc(OC2CCCN(CC(F)(F)F)C2)nc1 (stereo not drawn) [Example 40]

# output
6.19
6.17
6.18
